molecular target: Cytochrome P450 2C19 (Homo sapiens) (UniProt P33261); experiment: Cytochrome panel assay with activity outcomes; conditions: recombinant CYP, pro-luciferin dealkylation, luminescence, p450-cyp2c19; series mostly up to 57.1 µM
Sequence (P33261 whole entry, looked up): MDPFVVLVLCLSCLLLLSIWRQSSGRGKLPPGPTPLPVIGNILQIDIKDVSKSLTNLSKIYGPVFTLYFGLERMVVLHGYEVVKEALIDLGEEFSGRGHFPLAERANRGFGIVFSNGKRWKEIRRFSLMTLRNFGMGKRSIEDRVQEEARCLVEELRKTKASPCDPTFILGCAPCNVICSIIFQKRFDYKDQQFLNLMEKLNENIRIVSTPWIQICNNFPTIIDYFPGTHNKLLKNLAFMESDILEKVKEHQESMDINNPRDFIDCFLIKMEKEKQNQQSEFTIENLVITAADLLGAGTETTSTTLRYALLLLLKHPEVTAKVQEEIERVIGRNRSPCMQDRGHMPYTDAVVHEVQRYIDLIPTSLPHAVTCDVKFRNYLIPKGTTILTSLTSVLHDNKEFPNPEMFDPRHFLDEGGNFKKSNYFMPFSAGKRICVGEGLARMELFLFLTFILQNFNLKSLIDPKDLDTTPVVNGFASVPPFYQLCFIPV
Out of some 16,000 compounds screened, about 5,800 (36%) were called active. Another 23% or so got no clear call; they are omitted. Calls follow the shape of the dose curve; as a rule, active = well fitted curve in the direction sought with a large enough effect; inconclusive = small, poorly fitted or top-dose-only effect, or effect the other way; inactive = no such curve, though single readings can be large or run the other way. This is one part of the list.
I would appreciate it if you answered using one of these outcomes: True = active, False = inactive

Before answering, review these 2 worked examples.
CCOc1ccc(NC(=O)c2ccc(OC)cc2)cc1 :: False
CCOc1cc(/C=C2/SC(=O)N(CC(=O)N3CCc4ccccc4C3)C2=O)ccc1OCC(=O)O :: False

Which outcome did this test record for the compound "COc1ccc2c(c1)c(=O)oc1c(C)c(OCC(=O)N3CCc4ccccc4C3)ccc12" ?
True

Which outcome did this test record for the compound CC(C)(C)n1nnnc1C(c1cccnc1)N(Cc1ccccc1)Cc1ccco1 (stereo not given) ?
True

Which outcome did this test record for the compound "Cc1cc(C(F)(F)F)n2nc(-c3cnn(C)c3C(F)(F)F)c(Cl)c2n1" ?
True

----------
biological target: Cytochrome P450 2C19 (Homo sapiens); test: Cytochrome panel assay with activity outcomes; conditions: recombinant CYP, pro-luciferin dealkylation, luminescence, p450-cyp2c19; series mostly up to 57.1 µM
In all, about 16,000 compounds went through this assay and about 5,800 (36%) were called active. Roughly 23% stayed inconclusive and do not appear here. The list shows a part of the results.
property_measured: AC50

// solved cases for AC50 follow
O=S(=O)(c1ccc(F)cc1)n1ccc(-c2cnc(-c3ccccc3)s2)n1 :: 8.91 µM (active)
CN(C)C(=O)c1ccc(-c2cncnc2Nc2ccccc2)cc1 :: inactive
O=C(Cc1ccccc1I)Nc1ccccc1 :: 6.31 µM (active)
CN(C)C(=O)c1ccc(-c2cncnc2NCc2cccnc2)cc1 :: 2.51 µM (active)
CN(C)C(=O)c1ccc(-c2cncnc2NCc2ccccc2)cc1 :: inactive

Can you share its AC50? I mean this compound: "COc1ccc(S(=O)(=O)n2ccc(-c3cnc(-c4ccccc4)s3)n2)cc1"
1.58 µM (active)

----------
molecular target: Cytochrome P450 2C19 (Homo sapiens); experiment: Cytochrome panel assay with activity outcomes; conditions: recombinant CYP, pro-luciferin dealkylation, luminescence, p450-cyp2c19; series mostly up to 57.1 µM
Screen size: about 16,000 compounds; about 5,800 (36%) were called active. Roughly 23% stayed inconclusive and do not appear here. The call rests on the fitted dose curve; in most records, active means well fitted curve in the direction sought with a large enough effect; inconclusive means small, poorly fitted or top-dose-only effect, or effect the other way; inactive means no such curve, though single readings can be large or run the other way. The list shows a part of the results.
I would appreciate it if you answered using one of these outcomes: active, inactive

Before answering, review these 2 worked examples.
O=C(OC(C(=O)NC1CCCC1)c1ccncc1)C1=Cc2ccccc2OC1 (stereo unspecified) :: active
CC(Sc1nc(-c2ccccc2)cc(C(F)(F)F)n1)C(=O)N1CCCCC1 (stereo unspecified) :: active

Which outcome did this test record for the compound "COc1ccc(NC(=O)N2CC[C@@]3(CCCN(C(C)=O)C3)C2)cc1" ?
inactive

Which outcome did this test record for the compound "CC(C)NC(=O)N1CC2(CCN(C(=O)c3ccco3)CC2)C1" ?
inactive

Which outcome did this test record for the compound "COc1ccc2oc(=O)c(C(=O)Oc3ccc(NC(C)=O)cc3)cc2c1" ?
active

----------
target: Cytochrome P450 2C19 (Homo sapiens); assay: Cytochrome panel assay with activity outcomes; conditions: recombinant CYP, pro-luciferin dealkylation, luminescence, p450-cyp2c19; series mostly up to 57.1 µM
Out of some 16,000 compounds screened, about 5,800 (36%) were called active. Inconclusive results (about 23%) are left out. Some of the results follow.
property_measured: AC50

// solved cases for AC50 follow
CN1CCCC[C@@H]1CCN1c2ccccc2Sc2ccc(S(C)=O)cc21 (stereo partly specified) :: inactive
CC(C)(C)c1cc2cccnc2n1Cc1ccccc1 :: 10 µM (active)
COc1cc(-c2nnc(SCC3(c4ccccc4)OCCO3)o2)cc(OC)c1OC :: 1.12 µM (active)
FC(F)(F)c1cnc(/C=C/Nc2ccccc2Cl)c(Cl)c1 :: inactive
Cc1cc(NC(=O)CCN2C(=O)C3C4CCC(C4)C3C2=O)c(C)cc1Br (stereo unspecified) :: 11.2 µM (active)
CCN(CC)CCC[C@H](C)Nc1c2ccc(Cl)cc2nc2ccc(OC)cc12 :: inactive
O=C(c1cc(C(F)(F)F)cc(C(F)(F)F)c1)N1CCC[C@@]2(CCN(c3ncccn3)C2)C1 :: inactive
Cc1cccc(C)c1NC(=O)CCN1C(=O)C2C3CCC(C3)C2C1=O (stereo unspecified) :: inactive

Value wanted: AC50 (Cytochrome P450 2C19 (Homo sapiens)) of entry CC1=CC=CN2CC(O)CN=C12 (stereo unspecified)
inactive

Value wanted: AC50 (Cytochrome P450 2C19 (Homo sapiens)) of entry "NS(=O)(=O)c1ccc(NCc2ccccc2OCc2ccccc2F)cc1"
6.31 µM (active)

Value wanted: AC50 (Cytochrome P450 2C19 (Homo sapiens)) of entry "CCCCOC(=O)CSc1nnc(-c2cc(OC)c(OC)c(OC)c2)o1"
15.8 µM (active)

----------
molecular target: Cytochrome P450 2C19 (Homo sapiens) (UniProt P33261); assay: Cytochrome panel assay with activity outcomes; settings: recombinant CYP, pro-luciferin dealkylation, luminescence, p450-cyp2c19; series mostly up to 57.1 µM
Screen size: about 16,000 compounds; about 5,800 (36%) were called active. Roughly 23% stayed inconclusive and do not appear here. Calls follow the shape of the dose curve; as a rule, active = well fitted curve in the direction sought with a large enough effect; inconclusive = small, poorly fitted or top-dose-only effect, or effect the other way; inactive = no such curve, though single readings can be large or run the other way. The list shows a part of the results.
I would appreciate it if you answered using one of these outcomes: active, inactive

Before answering, review these 4 worked examples.
O=C(Nc1ccc(-c2nc3ccccc3o2)cc1)c1ccc(N2CCOCC2)c([N+](=O)[O-])c1 :: active
Cc1ccc(C)c(-c2nn(-c3cc(N4CCN(CCO)CC4)ccc3[N+](=O)[O-])c(=O)c3ccccc23)c1 :: inactive
COc1ccc(-c2c(C)oc3c(CN4CCN(CCO)CC4)c(O)ccc3c2=O)cc1OC :: inactive
c1ccc(CNc2nc(-c3ccc4c(c3)OCO4)nc3ccccc23)cc1 :: active

Which outcome did this test record for the compound "COC(=O)C/C=C\[C@@H](C)[C@@H](/C=N\OC[C@@H]1O[C@H](c2ccccc2)C=C[C@@H]1Oc1ccc(OC)cc1)OC" ?
active

Which outcome did this test record for the compound "Cc1cc(NS(=O)(=O)c2ccc(NC(=O)CN3C(=O)c4ccccc4C3=O)cc2)nc(C)n1" ?
inactive

Which outcome did this test record for the compound "COc1ccc2cc3[n+](cc2c1OC)CCc1cc2c(cc1-3)OCO2" ?
inactive

Which outcome did this test record for the compound "Cc1ccc(C)c(C(=O)CN2C(=O)c3ccccc3S2(=O)=O)c1" ?
inactive

----------
molecular target: Cytochrome P450 2C19 (Homo sapiens); assay: Cytochrome panel assay with activity outcomes; conditions: recombinant CYP, pro-luciferin dealkylation, luminescence, p450-cyp2c19; series mostly up to 57.1 µM
The campaign covered roughly 16,000 compounds. About 5,800 (36%) were called active. Not shown: some 23% with an inconclusive outcome. The call rests on the fitted dose curve; in most records, active means well fitted curve in the direction sought with a large enough effect; inconclusive means small, poorly fitted or top-dose-only effect, or effect the other way; inactive means no such curve, though single readings can be large or run the other way. The list shows a part of the results.
I would appreciate it if you answered using one of these outcomes: active, inactive

Which outcome did this test record for the compound "Cn1c(=O)c(-c2ccc(Cl)cc2)nc2cnc(OCc3ccccc3)nc21" ?
inactive

Which outcome did this test record for the compound "COC(=O)[C@@]1(Cc2ccccc2)[C@@H]2C(=CC(=O)[C@H]2CC(=O)C(=O)N(C)C)CN1C(=O)c1ccccc1" ?
inactive

Which outcome did this test record for the compound "COc1ccccc1CNc1nc(-c2ccc(N(C)C)cc2)nc2ccccc12" ?
active

Which outcome did this test record for the compound "CCOC(=O)c1oc2nc(CC(C)C)c3c(c2c1N)CCC3" ?
active

Which outcome did this test record for the compound CC12c3ccccc3C(c3ccccc31)C1C(=O)N(Cc3cccnc3)C(=O)C12 (stereo not given) ?
active

----------
biological target: Cytochrome P450 2C19 (Homo sapiens); assay: Cytochrome panel assay with activity outcomes; conditions: recombinant CYP, pro-luciferin dealkylation, luminescence, p450-cyp2c19; series mostly up to 57.1 µM
Among all 16,000 compounds or so, about 5,800 (36%) were called active. Inconclusive results (about 23%) are left out. Calls come from the whole dose curve; as a rule, active = well fitted curve in the direction sought with a large enough effect; inconclusive = small, poorly fitted or top-dose-only effect, or effect the other way; inactive = no such curve, though single readings can be large or run the other way. The list shows a part of the results.
I would appreciate it if you answered using one of these outcomes: active, inactive

Before answering, review these 3 worked examples.
Nc1nc(NCc2ccccc2)nc(Nc2cccc(F)c2)c1[N+](=O)[O-] :: inactive
O=c1c(-c2cc(F)cc(F)c2)nc2cnc(N3CCOCC3)nc2n1C1CC1 :: inactive
Cc1cccc(-c2n[nH]c([N+](=O)[O-])n2)c1 :: inactive

Which outcome did this test record for the compound "COc1cccc([C@@H]2Oc3ccc(OC)cc3C(=O)[C@H]2O)c1" ?
active

Which outcome did this test record for the compound CC1=CC(=O)C=CC1(C)C(Cl)(Cl)Cl (stereo unspecified) ?
active

Which outcome did this test record for the compound "Cc1sc(=NC(=O)c2ccco2)n(C)c1-c1ccccc1" ?
active

----------
Biological target: Cytochrome P450 2C19 (Homo sapiens)
Assay: Cytochrome panel assay with activity outcomes
Details: recombinant CYP, pro-luciferin dealkylation, luminescence, p450-cyp2c19; series mostly up to 57.1 µM
Description: The P450 gene superfamily is involved in the metabolism and clearance of xenobiotics. This assay used various human CYP P450 isozymes to measure the dealkylation of various pro-luciferin substrates to luciferin. The luciferin is then measured by luminescence after the addition of a luciferase detection reagent. […] Inhibitors and some substrates limit the production of luciferin, and decrease measured luminescence. […] 8, Detection, 1 sec, ViewLux luminescent read […]
In all, about 16,000 compounds went through this assay and about 5,800 (36%) were called active. About 23% were inconclusive and are not listed. Some of the results follow.
property_measured: AC50

// solved cases for AC50 follow
COc1ccc(/C=N/NC(=O)c2cccc([N+](=O)[O-])c2)cc1OS(=O)(=O)c1ccc(C)cc1 :: 3.16 µM (active)
Cc1ccc(N(CCC#N)C(=O)CSc2ccc3c(c2)OCCO3)cc1 :: 2 µM (active)
Cc1cc(-c2n[nH]c(=S)o2)c(C)n1-c1ccccc1 :: inactive
CCOc1ccc(NC(=S)NC(=O)/C=C/c2ccc(OC)c(OC)c2)c([N+](=O)[O-])c1 :: inactive
N[C@@H](CCCP(=O)(O)O)C(=O)O :: inactive
CN(C)CCN(Cc1ccc(Cl)cc1)c1ccccn1 :: 6.31 µM (active)
COC(=O)[C@@]1(Cc2ccc(F)cc2)[C@H]2c3cc(C(=O)N4CCCC4)n(Cc4ccc(S(C)(=O)=O)cc4)c3C[C@H]2CN1C(=O)c1ccccc1 :: inactive
O=C(CCC1CCCCC1)Nc1c2c(nn1-c1ccc(F)cc1)CS(=O)(=O)C2 :: 15.8 µM (active)
Cc1cc(-c2ccccc2)nnc1NCCN1CCOCC1 :: inactive
CCNc1ncc2nc(-c3ccc(Cl)cc3)c(=O)n(C[C@H]3CCCO3)c2n1 :: inactive

Can you share its AC50? I mean this compound: "COc1ccc(CN(CCN(C)C)c2ccccn2)cc1"
inactive

Can you share its AC50? I mean this compound: "Cc1cc(C)nc(Nc2ncc(O)n2-c2ccccc2)n1"
inactive

Can you share its AC50? I mean this compound: "CC(C)CN1CCCC2(CCN(C(=O)c3csnn3)CC2)C1"
inactive

Can you share its AC50? I mean this compound: "Cc1cc(C)cc(-n2c(C)cc(C=C(C#N)C#N)c2C)c1"
5.62 µM (active)

Can you share its AC50? I mean this compound: "NC(N)=N[C@H](CCC(=O)O)C(=O)O"
inactive

Can you share its AC50? I mean this compound: "Cc1cc(C(=O)N[C@H](c2ccccc2)[C@@]2(C)C[C@@H]2[C@@H](C)C(=O)Nc2ccc3ccccc3c2)n(C)n1"
15.8 µM (active)

Can you share its AC50? I mean this compound: "O=C(Nc1ccc2c(c1)nc1n2CCN(C2CCCCC2)C1)NC1CCCCC1"
14.1 µM (active)

Can you share its AC50? I mean this compound: "Cc1cc(C(=O)N[C@@H](c2ccccc2)[C@]2(C)C[C@H]2[C@@H](C)C(=O)Nc2ccc3ccccc3c2)n(C)n1"
10 µM (active)

Can you share its AC50? I mean this compound: "CN(C)CCN(Cc1cccs1)c1ccccn1"
inactive

Can you share its AC50? I mean this compound: "CCCOc1ccc(/C=C/C(=O)Nc2ccc([N+](=O)[O-])cc2C)cc1OC"
3.98 µM (active)

Can you share its AC50? I mean this compound: "COc1ccccc1CN1CCCC2(CCN(C(=O)c3cccn3C)CC2)C1"
inactive

Can you share its AC50? I mean this compound: "C=CCNC(=S)Nc1ccc2nc(C)c(C)nc2c1"
inactive
